These measurements were taken from paper PMC9490041.

TEST TARGET: PSG (PSD-95)
PROTOCOL TEXT: FP displacement (competition) of FITC-15 AA CRIPT by library peptide, IC50 and Ki
TEST CONDITIONS: read-out: Ki (µM), PSG; FP displacement of FITC-15 AA CRIPT probe by acetylated PSD library peptide
In this section we review reported Ki values for a set of compounds.
READOUT: Ki

[[record]]
cpd_smiles = "CC[C@H](C)[C@H](NC(=O)[C@H](CCC(=O)O)NC(=O)[C@H](CCC(=O)O)NC(=O)[C@@H](NC(=O)[C@@H](NC(=O)[C@H](CO)NC(=O)[C@H](CCC(=O)O)NC(=O)[C@H](Cc1ccc(O)cc1)NC(C)=O)[C@@H](C)O)[C@@H](C)O)C(=O)N[C@@H](CCC(=O)O)C(=O)N[C@@H](CC(C)C)C(=O)N[C@@H](CCC(=O)O)C(=O)N[C@@H](CC(=O)O)C(=O)N[C@H](C(=O)N[C@@H](CCC(=O)O)C(=O)N[C@@H](CS)C(=O)O)C(C)C"
result = "31 µM"

[[record]]
cpd_smiles = "CC(=O)N[C@@H](Cc1ccc(O)cc1)C(=O)N[C@@H](CO)C(=O)N[C@@H](CC(C)C)C(=O)N[C@@H](CO)C(=O)N[C@@H](CCCCN)C(=O)N[C@@H](Cc1c[nH]cn1)C(=O)N[C@@H](CCC(=O)O)C(=O)N[C@@H](CO)C(=O)N[C@@H](CCC(=O)O)C(=O)N[C@@H](Cc1ccc(O)cc1)C(=O)N[C@@H](CC(N)=O)C(=O)N[C@H](C(=O)N[C@H](C(=O)N[C@@H](CCCNC(=N)N)C(=O)N[C@H](C(=O)O)C(C)C)[C@@H](C)O)[C@@H](C)O"
result = "101 µM"


----------
TEST TARGET: PDZ3 (PSD-95) (Homo sapiens)
PROTOCOL TEXT: FP displacement (competition) of FITC-15 AA CRIPT by library peptide, IC50 and Ki
TEST CONDITIONS: Ki (µM), PDZ3, FP displacement of FITC-15 AA CRIPT probe by acetylated PSD library peptide
Ends that are not written are not given here.
READOUT: Ki (µM)

[[record]]
substance = "Ac-YQARRGKKKSGSLVL [RHOA]"
quantitative_readout = 548


----------
In this section we review reported Ki values for a set of compounds.
TEST TARGET: PDZ3 (PSD-95) (Homo sapiens, UniProt P78352)
Sequence (P78352 313-393 limits assumed): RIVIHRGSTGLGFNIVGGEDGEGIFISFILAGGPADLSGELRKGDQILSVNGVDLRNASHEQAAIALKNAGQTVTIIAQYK
PROTOCOL TEXT: FP displacement (competition) of FITC-15 AA CRIPT by library peptide, IC50 and Ki
TEST CONDITIONS: Ki, FP displacement of 5 nM FITC-15 AA CRIPT by non-labeled acetylated peptide, room temperature, Ki from IC50, technical triplicates; PDZ3
READOUT: Ki

[[record]]
cpd_smiles = "CC(=O)N[C@@H](Cc1ccc(O)cc1)C(=O)N[C@@H](CO)C(=O)N[C@@H](CC(C)C)C(=O)N[C@@H](CO)C(=O)N[C@@H](CCCCN)C(=O)N[C@@H](Cc1c[nH]cn1)C(=O)N[C@@H](CCC(=O)O)C(=O)N[C@@H](CO)C(=O)N[C@@H](CCC(=O)O)C(=O)N[C@@H](Cc1ccc(O)cc1)C(=O)N[C@@H](CC(N)=O)C(=O)N[C@H](C(=O)N[C@H](C(=O)N[C@@H](CCCNC(=N)N)C(=O)N[C@H](C(=O)O)C(C)C)[C@@H](C)O)[C@@H](C)O"
result = "< 75 µM"

[[record]]
cpd_smiles = "CC[C@H](C)[C@H](NC(=O)[C@@H]1CCCN1C(=O)[C@H](Cc1ccc(O)cc1)NC(C)=O)C(=O)NCC(=O)NCC(=O)N[C@@H](CO)C(=O)N[C@@H](CC(C)C)C(=O)N[C@@H](CC(N)=O)C(=O)N[C@@H](CO)C(=O)N[C@H](C(=O)N[C@H](C(=O)N[C@@H](CC(=O)O)C(=O)N[C@@H](CO)C(=O)N[C@@H](C)C(=O)N[C@@H](CC(C)C)C(=O)O)[C@@H](C)O)[C@@H](C)O"
result = "< 75 µM"

[[record]]
cpd_smiles = "CC[C@H](C)[C@H](NC(=O)[C@H](Cc1ccccc1)NC(=O)[C@H](CO)NC(=O)[C@H](CCCNC(=N)N)NC(=O)[C@H](CCCCN)NC(=O)[C@@H]1CCCN1C(=O)[C@H](CCCCN)NC(=O)[C@H](C)NC(=O)[C@H](C)NC(=O)[C@@H](NC(=O)[C@H](Cc1ccc(O)cc1)NC(C)=O)[C@@H](C)O)C(=O)N[C@@H](CCC(=O)O)C(=O)N[C@@H](CO)C(=O)N[C@@H](CC(N)=O)C(=O)N[C@H](C(=O)O)C(C)C"
result = "< 75 µM"

[[record]]
cpd_smiles = "CC(=O)N[C@@H](Cc1ccc(O)cc1)C(=O)N[C@@H](CC(N)=O)C(=O)N[C@@H](CO)C(=O)N[C@H](C(=O)N[C@@H](CC(N)=O)C(=O)N[C@@H](CC(C)C)C(=O)N1CCC[C@H]1C(=O)N[C@@H](Cc1c[nH]cn1)C(=O)NCC(=O)N[C@@H](Cc1c[nH]cn1)C(=O)N[C@@H](CO)C(=O)N[C@H](C(=O)N[C@H](C(=O)N[C@@H](CCCNC(=N)N)C(=O)N[C@H](C(=O)O)C(C)C)[C@@H](C)O)[C@@H](C)O)[C@@H](C)O"
result = "< 75 µM"

[[record]]
cpd_smiles = "CC(=O)N[C@@H](Cc1ccc(O)cc1)C(=O)N[C@@H](Cc1c[nH]cn1)C(=O)N1CCC[C@H]1C(=O)N[C@@H](Cc1c[nH]cn1)C(=O)N1CCC[C@H]1C(=O)N[C@@H](Cc1c[nH]cn1)C(=O)N1CCC[C@H]1C(=O)N[C@@H](Cc1c[nH]cn1)C(=O)N[C@@H](CO)C(=O)N[C@@H](Cc1c[nH]cn1)C(=O)N[C@@H](CO)C(=O)N[C@H](C(=O)N[C@H](C(=O)N[C@@H](CCCNC(=N)N)C(=O)N[C@H](C(=O)O)C(C)C)[C@@H](C)O)[C@@H](C)O"
result = "< 75 µM"

[[record]]
cpd_smiles = "CC(=O)N[C@@H](Cc1ccc(O)cc1)C(=O)N[C@@H](C)C(=O)N[C@@H](CO)C(=O)N[C@@H](CC(N)=O)C(=O)N[C@H](C(=O)N[C@@H](CC(N)=O)C(=O)N[C@H](C(=O)N[C@@H](CC(C)C)C(=O)N[C@@H](CC(N)=O)C(=O)N[C@@H](CCCNC(=N)N)C(=O)N[C@@H](CCCCN)C(=O)N[C@H](C(=O)N[C@H](C(=O)N1CCC[C@H]1C(=O)N[C@H](C(=O)O)C(C)C)[C@@H](C)O)[C@@H](C)O)[C@@H](C)O)[C@@H](C)O"
result = "< 75 µM"


----------
In this section we review reported Ki values for a set of compounds.
TEST TARGET: PDZ3 (PSD-95) (Homo sapiens)
PROTOCOL TEXT: FP displacement (competition) of FITC-15 AA CRIPT by library peptide, IC50 and Ki
TEST CONDITIONS: Ki (µM), PDZ3, FP displacement of FITC-15 AA CRIPT probe by acetylated PSD library peptide
READOUT: Ki (µM)

[[record]]
cpd_smiles = "CC[C@H](C)[C@H](NC(=O)[C@H](Cc1ccccc1)NC(=O)[C@H](CO)NC(=O)[C@H](CCCNC(=N)N)NC(=O)[C@H](CCCCN)NC(=O)[C@@H]1CCCN1C(=O)[C@H](CCCCN)NC(=O)[C@H](C)NC(=O)[C@H](C)NC(=O)[C@@H](NC(=O)[C@H](Cc1ccc(O)cc1)NC(C)=O)[C@@H](C)O)C(=O)N[C@@H](CCC(=O)O)C(=O)N[C@@H](CO)C(=O)N[C@@H](CC(N)=O)C(=O)N[C@H](C(=O)O)C(C)C"
quantitative_readout = 23

[[record]]
cpd_smiles = "CC[C@H](C)[C@H](NC(=O)[C@H](CO)NC(=O)[C@H](CCC(N)=O)NC(=O)[C@H](CCCNC(=N)N)NC(=O)[C@H](CCCCN)NC(=O)[C@H](CO)NC(=O)[C@H](CC(=O)O)NC(=O)[C@@H]1CCCN1C(=O)[C@H](Cc1ccc(O)cc1)NC(C)=O)C(=O)N[C@@H](CC(C)C)C(=O)N[C@@H](Cc1ccccc1)C(=O)N[C@@H](CO)C(=O)N[C@H](C(=O)N[C@@H](CCC(=O)O)C(=O)N[C@H](C(=O)O)C(C)C)[C@@H](C)O"
quantitative_readout = 42


----------
TEST TARGET: PSG G322A G335A (PSD-95)
PROTOCOL TEXT: FP displacement (competition) of FITC-15 AA CRIPT by library peptide, IC50 and Ki
TEST CONDITIONS: read-out: Ki (µM), PSG G322A G335A; FP displacement of FITC-15 AA CRIPT probe by PSD library peptide; protein PSG G322A G335A
In this section we review reported Ki values for a set of compounds.
READOUT: Ki (µM)

[[record]]
cpd_smiles = "CC(=O)N[C@@H](Cc1ccc(O)cc1)C(=O)N[C@@H](Cc1c[nH]cn1)C(=O)N[C@@H](Cc1c[nH]cn1)C(=O)N[C@H](C(=O)N[C@@H](CO)C(=O)N[C@@H](Cc1ccc(O)cc1)C(=O)N[C@H](C(=O)N[C@@H](C)C(=O)N[C@@H](CO)C(=O)N[C@@H](CCCCN)C(=O)N[C@H](C(=O)N[C@@H](CCC(=O)O)C(=O)N[C@H](C(=O)N[C@H](C(=O)N[C@H](C(=O)O)C(C)C)[C@@H](C)O)C(C)C)[C@@H](C)O)[C@@H](C)O)[C@@H](C)O"
quantitative_readout = 405

[[record]]
cpd_smiles = "CC(=O)N[C@@H](Cc1ccc(O)cc1)C(=O)N[C@@H](CO)C(=O)N[C@@H](CO)C(=O)N[C@H](C(=O)N[C@@H](CO)C(=O)N1CCC[C@H]1C(=O)N[C@@H](CCC(N)=O)C(=O)N[C@@H](CO)C(=O)N[C@H](C(=O)N[C@@H](CC(=O)O)C(=O)N[C@@H](CCCCN)C(=O)N[C@@H](CO)C(=O)N[C@@H](CO)C(=O)N[C@H](C(=O)N[C@H](C(=O)O)C(C)C)[C@@H](C)O)[C@@H](C)O)[C@@H](C)O"
quantitative_readout = 151

[[record]]
cpd_smiles = "CC(=O)N[C@@H](Cc1ccc(O)cc1)C(=O)N[C@@H](CCC(=O)O)C(=O)N[C@@H](CCC(=O)O)C(=O)N[C@@H](CCC(=O)O)C(=O)N[C@@H](CC(C)C)C(=O)N[C@@H](CCC(N)=O)C(=O)N[C@@H](CC(=O)O)C(=O)N[C@@H](CO)C(=O)N[C@@H](CCCNC(=N)N)C(=O)N[C@H](C(=O)N[C@@H](Cc1ccc(O)cc1)C(=O)N[C@H](C(=O)N[C@@H](CO)C(=O)N[C@@H](CO)C(=O)N[C@@H](CC(C)C)C(=O)O)C(C)C)C(C)C"
quantitative_readout = 28

